target: METTL9^M6 (METTL9^46–318 with six mutations) (human, UniProt Q9H1A3 46-318); assay: ITC
Sequence (Q9H1A3 other isoform, or with tags, fused parts or gaps): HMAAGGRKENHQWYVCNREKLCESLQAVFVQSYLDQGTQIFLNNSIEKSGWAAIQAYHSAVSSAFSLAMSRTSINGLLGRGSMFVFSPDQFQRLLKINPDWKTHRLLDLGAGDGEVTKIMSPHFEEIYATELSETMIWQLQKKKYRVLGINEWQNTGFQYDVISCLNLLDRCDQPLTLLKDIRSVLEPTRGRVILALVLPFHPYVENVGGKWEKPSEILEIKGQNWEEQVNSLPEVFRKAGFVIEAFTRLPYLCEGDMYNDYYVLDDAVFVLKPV
READOUT KIND: Kd (µM)

[A] RGHGHSHGKGC [mouse S100A9^101–111 peptide]
[B] GHQGHSHGHQGGY [SLC39A5^369–380 peptide]
Between these two entries, A and B , state which has the higher Kd. # respond with the chosen item's label
B
(B: 9 µM, A: 3.6 µM)

The measurements presented in this section are drawn from paper PMC10073072.
